Values from PubChem BioAssay (NCI)

# Test system: UACC-62 melanoma
# assay.procedure: NCI-60 one-dose screen, 48 h
# condition.description: 10 µM
The panel holds about 83,000 compounds, 20% with a hit somewhere; the sample as a whole holds those more often. The source made the active and inactive calls. How the source made its calls: active means growth percent below 10; inactive means the rest.
Labels: active, inactive

> print(dat)
                                    compound   subject.of.test  class.name
 1        CCOC(=O)c1ccc(N(C=O)CCC(=O)CCl)cc1  UACC-62 melanoma    inactive
 2  CCOC(=O)CNC(=O)Nc1ccc(Oc2ccc(NC(=O)NCC(=O)OCC)cc2)cc1  UACC-62 melanoma    inactive
 3  COc1ccc(C(=O)/C=C/c2cc(-c3ccc(OC)c(OC)c3)n[nH]2)cc1OC  UACC-62 melanoma    inactive
 4  COc1ccc(C2C=C(c3ccc(OC)c(OC)c3)N=C3SC=CN32)c(Br)c1 (configuration not stated)  UACC-62 melanoma    inactive
 5  O=[N+]([O-])C1CC2C=CC1C2 (configuration not stated)  UACC-62 melanoma    inactive
 6  CS(=O)(=O)Nc1ccc(OCc2nnc(-c3ccc(Cl)cc3)o2)c(F)c1  UACC-62 melanoma    inactive
 7  COc1ccc(S(=O)(=O)Nc2cc(/C=C\c3cc(OC)c(OC)c(OC)c3)ccc2OC)cc1  UACC-62 melanoma    inactive
 8  Cc1nc2ccc(-n3c(-c4ccc(Cl)cc4)nc4ccccc4c3=O)cc2n1Cc1ccccc1  UACC-62 melanoma    inactive
 9  O=C(NC1CCN(Cc2ccccc2)CC1)c1cc(-c2ccncc2)nc2ccc(Cl)cc12  UACC-62 melanoma      active
10  N/C(=N\O)c1cn(C2OC(CO)C(O)C2O)c2ncnc(N)c12 (configuration not stated)  UACC-62 melanoma      active
11  Cc1ccc([P+](Cc2ccccc2)(c2ccccc2)c2ccccc2)cc1  UACC-62 melanoma      active
12  Cc1ccc(/C(CS(=O)(=O)c2ccc(C)cc2)=N\O)cc1  UACC-62 melanoma    inactive
13           CC(C)c1ncc(CO)n1Cc1c(Cl)cccc1Cl  UACC-62 melanoma    inactive
14  O=C(c1ccccc1)C(Sc1ccccc1)c1ccccc1 (configuration not stated)  UACC-62 melanoma    inactive
15           COc1ccc(OC)c([N+](=O)[O-])c1C=O  UACC-62 melanoma    inactive
16  CC(C)c1[nH]nc2c(NCc3ccc(-c4ccccn4)cc3)nc(SCCN(C)C)nc12  UACC-62 melanoma      active
17  COc1c(C)c(C)c(OC)c2c1[nH]c(=O)c1c3cccnc3cn21  UACC-62 melanoma    inactive
18  COc1ccc(CCc2nc3cc(-c4c(C)noc4C)ccc3n2CCN2CCOCC2)cc1  UACC-62 melanoma    inactive
19  COC(=O)[C@]12CC[C@@H](C)[C@H](C)[C@@H]1C1=CC[C@@H]3[C@@]4(C)C/C(=N\O)[C@H](O)[C@@]5(C)COC(=C45)C[C@@]3(C)[C@]1(C)CC2  UACC-62 melanoma      active
20  C=CCOc1ccc2c(c1)CC[C@@H]1[C@@H]2CC[C@]2(C)C(=O)/C(=N/O)C[C@@H]12  UACC-62 melanoma    inactive
21  COc1ccc2c(c1)/C(=C/c1cc(OC)c(OC)c(OC)c1)C(=O)N2C  UACC-62 melanoma    inactive
22  Nc1ccccc1NC(=O)CCCCCCC(=O)Nc1ccc2c(c1)/C(=C/c1ccc[nH]1)C(=O)N2  UACC-62 melanoma    inactive
23              O=C(N/N=C/c1ccccc1O)c1ccccc1  UACC-62 melanoma    inactive
24          CCCCCCCC/C=C/CCCCCCCCC1=NCCN1CCO  UACC-62 melanoma    inactive
25  CCOC(=O)c1c(C(F)(F)F)n([O-])c2ccc(OC)cc2[n+]1=O  UACC-62 melanoma    inactive
26  CCCCCC(=O)N1c2ccccc2NC2=C(C(=O)CC(c3ccc(OC)c(OC)c3)C2)C1c1ccc(C(F)(F)F)cc1 (configuration not stated)  UACC-62 melanoma    inactive
27  CNC(=S)Sc1ccc([N+](=O)[O-])cc1[N+](=O)[O-]  UACC-62 melanoma    inactive
28     CC(=O)OCC(COC(C)=O)(COC(C)=O)COC(C)=O  UACC-62 melanoma    inactive
29    C=CCN1C(=O)/C(=C\c2ccc3c(c2)CCC3)SC1=S  UACC-62 melanoma    inactive
30  Cc1cc(OI)c(C(C)C)cc1-c1cc(C(C)C)c(OI)cc1C  UACC-62 melanoma    inactive
31  COCCOC(=O)NC(=O)Nc1ccc(/C(=N/O)c2ccc(Cl)cc2)cc1  UACC-62 melanoma    inactive
32  Cc1ccc2oc(=O)cc(/C(=C3/C=CC=N3)c3ccc[nH]3)c2c1  UACC-62 melanoma    inactive
33  COc1ccccc1CNCCCN1C(=O)c2ccc3c4c(ccc(c24)C1=O)C(=O)N(CCCNCCNCCCN)C3=O  UACC-62 melanoma    inactive
34   CN(C)CCCN(Cc1ccccc1O)C(=S)Nc1ccc(Cl)cc1  UACC-62 melanoma    inactive
35            CCCCc1ccc(NC(=O)N(CCCl)N=O)cc1  UACC-62 melanoma    inactive
36        O=C1/C(=C/c2cccs2)CCC/C1=C\c1cccs1  UACC-62 melanoma    inactive
37  Cc1ccc(-c2cc(-c3cccc(Nc4ccnc5cc(Cl)ccc45)c3)nc3nc(N)[nH]c(=O)c23)cc1  UACC-62 melanoma    inactive
38  c1ccc(CC(NCCNC(Cc2ccccc2)c2ccccc2)c2ccccc2)cc1 (configuration not stated)  UACC-62 melanoma    inactive
39  COc1cc(-c2nc3cc(Cl)c(Cl)cc3[nH]2)ccc1OCC(=O)NN  UACC-62 melanoma    inactive
40  CNC(=O)c1cc(Oc2ccc(NC(=O)Nc3ccc(Cl)c(C(C)(C)C)c3)c(F)c2)ccn1  UACC-62 melanoma    inactive
41     COC(=O)c1cnc2c(c1)Oc1ccccc1-c1ccnn1-2  UACC-62 melanoma    inactive
42  Nc1c(CNCc2nnn(Cc3ccccc3)c2N)nnn1Cc1ccccc1  UACC-62 melanoma    inactive

* * *

# System: SK-MEL-28 melanoma
# assay.procedure: NCI-60 one-dose screen, 48 h (100 = growth as untreated, 0 = no growth, -100 = all killed)
# condition.description: 10 µM
About 83,000 compounds went through this panel and 20% of them were active in at least one assay; those are over-represented in the sample as a whole.
observation.type: growth (%)

compound	observation.type	recorded.measurement
COc1ccc(-c2nc(SCC(=O)c3ccc(Br)cc3)[nH]c(=O)c2C#N)cc1	growth	115
CCCCC(CC#N)(CCC)CCC	growth	99.6
Fc1cc(-c2ncc(-c3cc(F)c(F)c(F)c3)c(NC3CCCCCC3)n2)cc(F)c1F	growth	98.4
NS(=O)(=O)c1ccc(N2N=C(c3ccc(-c4ccccc4)cc3)CC2c2ccc(Cl)cc2)cc1 (stereo unspecified)	growth	96.8
NC(=O)c1ccc(Br)o1	growth	107
COc1nc2c(c(=O)[nH]1)C(c1ccc(Oc3ccnc4cc(Cl)ccc34)c(OC)c1)C=C(c1cc(OC)c(OC)c(OC)c1)N2 (stereo unspecified)	growth	116
COCc1cc2c(cc1Br)OCO2	growth	99.1
O=C(NCCCl)c1cc(Cl)cc(Cl)c1	growth	103
COC(=O)[C@]12CC[C@@H](C)[C@H](C)[C@@H]1C1=CC[C@@H]3[C@@]4(C)C[C@@H](O)[C@H](O)[C@@](C)(CO)[C@@H]4[C@H](O)C[C@@]3(C)[C@]1(C)CC2	growth	-48.4
CCOC(=O)c1cc2c(n1Cc1cc(OC)cc(OC)c1)-c1oncc1CC2	growth	33.8
COc1cc(C(=O)n2nc(N)c3c(C)cc(C)nc32)cc(OC)c1OC	growth	97.6

* * *

# Test system: M14 melanoma
# assay.procedure: NCI-60 one-dose screen, 48 h
# condition.description: 10 µM
This is part of a sample that, as a whole, favours compounds with a hit. Of some 83,000 tested, about 20% had one in any assay. Active and inactive are the calls of the source. Rule for the calls: active = growth percent below 10; inactive = the rest.
Labels: 1 (active), -1 (inactive)

> print(dat)
                                    compound  class.name
 1  Cc1cc(C)c(/C=C2\C(=O)Nc3ccc(NC(=O)CCCCCCC(=O)NO)cc32)[nH]1          -1
 2  CCCN(CCC)CCCNC(=O)c1cc2c(-c3ccc(OC)c(OC)c3)nn(C)c2s1           1
 3  Cn1cnc([N+](=O)[O-])c1Sc1nnc(-c2ccccc2)c(-c2ccccc2)n1          -1
 4            CCOC(=O)c1cc(-c2ccccc2)nc(N)n1          -1
 5  CCOc1nc(-c2ccccc2)cc2c(O)c(C(=O)NCCCO)[nH]c(=O)c12          -1
 6  CC1(C)CCc2cc(-c3ccn(S(=O)(=O)c4ccc(Cl)cc4)n3)ccc2O1          -1
 7  COc1cc(/C=C/C(=O)c2cc(-c3ccc(C(F)(F)F)cc3)ccc2O)cc(OC)c1OC          -1
 8  COc1cccc(C(=O)NNc2nc(N3CCN(C4CCCCC4)CC3)nc(N3CCN(C(c4ccccc4)c4ccccc4)CC3)n2)c1          -1
 9  CCOc1ccc2c(c1)CC[C@@H]1[C@@H]2CC[C@]2(C)[C@@H](O)[C@@H](O)C[C@@H]12          -1
10                        Oc1cc(O)c(Br)cc1Br          -1
11  COc1ccc(C2=NNC(c3sc(Cl)nc3Cl)C2)cc1 (stereo unspecified)          -1
12    CCN(Cc1ccccc1)C1CCN(Cc2cc(Br)ccc2O)CC1          -1
13     O=C(CSc1nnc(-c2ccc(Cl)cc2)o1)c1ccccc1          -1
14  O=C(CCCC(=O)N/N=C/c1cc(Cl)ccc1O)N/N=C\c1cc(Cl)ccc1O          -1
15  COc1cc2c3c(cccc3c1)C(=O)N(CCN1CCCC1)C2=O          -1
16     CCOCC[P+](c1ccccc1)(c1ccccc1)c1ccccc1          -1
17  COc1ccc(C2C=C(c3ccc(OC)c(OC)c3)N=C3SC=CN32)c(Br)c1 (stereo unspecified)          -1
18  CCOC(=O)c1c(C(F)(F)F)n([O-])c2ccc(OC)cc2[n+]1=O          -1
19             CCn1nc(-c2ccccn2)c2cccnc2c1=S          -1
20  COc1ccc(NC(=O)CCn2cnc3c(cc(-c4ccccc4)n3-c3ccccc3)c2=O)cc1          -1
21  CCc1c(C(=O)NCc2c(O)ccc3cccc(O)c23)[nH]c(C)c1C(C)=O          -1
